system: L1210 leukemia ip in BDF1 mice, survival T/C; test: NCI In Vivo Anticancer Drug Screen. Data for tumor model L1210 Leukemia (intraperitoneal) in B6D2F1 (BDF1) mice; conditions: endpoint: mean survival time; dose: 100.0 mg/kg/injection; schedule: Q01DX009 (ip); vehicle: Klucel (hydroxypropylcellulose) (HPC); higher = longer survival
Toxic doses and inconclusive results are not listed.
outcome measure: T/C

# molecule, T/C
data = [
    ("Nc1nc(=S)c2[nH]c(N=Nc3ccc(S(=O)(=O)Nc4cnc5ccccc5n4)cc3)nc2[nH]1", "91 % of control"),
    ("COC1OC(C2N(c3ccccc3)CCN2c2ccccc2)=CC(OC(C)=O)C1OC(C)=O (stereo not drawn)", "86 % of control"),
    ("CCOC(=O)c1cnc(SC)nc1Nc1ccc(Br)cc1", "92 % of control"),
    ("CC1C=CC(c2ccccc2)C2C(=O)OC(=O)C12 (stereo not drawn)", "101 % of control"),
]

Field: T/C. Fill in for each record below.
1. O=C1CCNc2cc(Cl)ccc21
2. O=C1OCCN1S(=O)(=O)c1ccc(Cl)c(Cl)c1

["98 % of control", "87 % of control"]

Could you report T/C for every entry in the following list?
1. COc1cc(OC)c(NC(=O)c2c(Br)c(Br)c(Br)c(Br)c2C(=O)O)cc1Cl
2. CC1=NNC(=O)C1CCO (stereo not drawn)

107 % of control
92 % of control

* * *

system: L1210 leukemia ip in BDF1 mice, survival T/C; assay: NCI In Vivo Anticancer Drug Screen. Data for tumor model L1210 Leukemia (intraperitoneal) in B6D2F1 (BDF1) mice; details: endpoint: mean survival time; dose: 100.0 mg/kg/injection; schedule: Q01DX009 (ip); vehicle: saline with Tween-80; higher = longer survival
Toxic doses and inconclusive results are not listed.
Record form. Attribute: T/C. Fill in for each entry.

Would you please look over these solved cases?
# compound, result
data = [
    ("COC(=O)c1c(Cl)c(Cl)c(C(=O)OC)c(Cl)c1Cl", "91 % of control"),
    ("NS(=O)(=O)c1ccc(N=Cc2ccccc2)cc1", "89 % of control"),
    ("Cc1ccc(C(O)c2ccccc2)cc1 (stereo unspecified)", "98 % of control"),
    ("CCCCCCP(=O)(O)O", "88 % of control"),
]

Batch request: T/C per item, same order as input.
1. COc1cccc(C(C)(C)COS(=O)(=O)c2ccc(C)cc2)c1
2. CC1=CC(=O)C(C)(C)C=C1

1: 90 % of control; 2: 104 % of control

* * *

So I've got a bunch of molecules here, and I need their T/C values.
system: L1210 leukemia ip in BDF1 mice, survival T/C; assay: NCI In Vivo Anticancer Drug Screen. Data for tumor model L1210 Leukemia (intraperitoneal) in B6D2F1 (BDF1) mice; conditions: endpoint: mean survival time; dose: 200.0 mg/kg/injection; schedule: Q01DX009 (ip); vehicle: Klucel (hydroxypropylcellulose) (HPC); higher = longer survival
Inconclusive results and toxic doses are left out.

Look over these answered cases.
# molecule, result
measured = [
    ("C[Si](C)(C)c1cc(F)c(F)c(F)c1F", "102 % of control"),
    ("CCOC(=O)CNC(=O)C(CSSCC(NC(=O)OCc1ccccc1)C(=O)NCC(=O)OCC)NC(=O)OCc1ccccc1 (centres undefined)", "92 % of control"),
    ("Nc1nc(N)c(CCCCc2ccccc2)c(Cc2ccccc2)n1", "98 % of control"),
]

Fill in reported T/C for this entry: "O=C(NCCCl)Nn1c2ccccc2c2ccccc21"
95 % of control

Ref: PubChem BioAssay AID248
